Every entry's value here was drawn from PubChem BioAssay (NCI).

- Tested on: LXFL 529 NSCLC
- method: NCI tumour cell line growth inhibition, 48 h
Item-by-item account of TGI

Observe how each entry below is paired with its result.
compound: CC1c2ccccc2Cn2cc3c(c21)C(=O)c1cccc(OP(=O)(O)OCc2ccccc2)c1C3=O (stereo not given)
observable: TGI
valueObserved: > 100 µM
--
compound: Brc1ccc2c(C3CN[C@@H](c4c[nH]c5cc(Br)ccc45)CN3)c[nH]c2c1 (stereo not given in full)
observable: TGI
valueObserved: 6.86 µM
--
compound: COC(=O)CCC(NC(=S)N/N=C(\C)c1ccco1)C(=O)OC (stereo not given)
observable: TGI
valueObserved: > 100 µM

// query Determine its reported TGI: COc1ccc2c3ccc4c(c3n(C)c2c1)C(=O)C=CC4=O
// result 28.6 µM

// query Determine its reported TGI: N#CC(C#N)=C(C(C#N)C#N)C(C#N)C#N
// result > 100 µM

// query Determine its reported TGI: C[C@]12CC[C@H](O)CC1=CC[C@@H]1C2CC[C@]2(C)NC(=O)C(C#N)CC12 (stereo not given in full)
// result > 100 µM

// query Determine its reported TGI: CNS(=O)(=O)NN(C)S(=O)(=O)c1ccc(OC)cc1
// result > 100 µM

// query Determine its reported TGI: NC1CCCCC1N.O=NN1CCCCCC1(P(=O)([O-])[O-])P(=O)([O-])[O-].[Na+].[Pt+2]
// result > 100 µM

// query Determine its reported TGI: Nc1ccc(N)c2c1C(=O)c1ccccc1C2=O
// result > 100 µM

// query Determine its reported TGI: COC(=O)c1cc2cc(OC)c(OC)cc2cc(C(=O)OC)c1=O
// result > 100 µM

----------
Item-by-item account of TGI
- Tested on: UACC-62 melanoma
- method: NCI tumour cell line growth inhibition, 48 h

Observe how each entry below is paired with its result.
molecule: CN(C)CCCNc1c2c(nc3ccc(Cl)cc13)CCCC2
TGI: 32.1 µM

molecule: O=C1C=C(Nc2ccc([N+](=O)[O-])cc2)c2ccccc2C1=O
TGI: 5.88 µM

molecule: O=S(=O)(c1ccccc1)[C@H]1[C@@H]2O[C@@H]2C[C@@H]1O
TGI: > 100 µM

molecule: Cc1cn(C2CC(Br)C(COC(c3ccccc3)(c3ccccc3)c3ccccc3)O2)c(=O)[nH]c1=O (stereo unspecified)
TGI: 24.8 µM

// query Please report the measured TGI for O=c1nc2n(c3nsnc13)CCO2 tested on UACC-62 melanoma.
// result > 100 µM

// query Please report the measured TGI for O=C1NC(c2cccc3ccccc23)Nc2ccc(O)cc21 (stereo unspecified) tested on UACC-62 melanoma.
// result 78.5 µM

// query Please report the measured TGI for COc1ccc(C2=Nn3c(nnc3-c3ccccc3)S/C2=C\c2ccc(-c3ccc([N+](=O)[O-])cc3)o2)cc1 tested on UACC-62 melanoma.
// result > 100 µM

// query Please report the measured TGI for N#Cc1nnc2ccccc2c1N tested on UACC-62 melanoma.
// result > 100 µM

// query Please report the measured TGI for COc1ccc(-c2c3ccccc3c(-c3ccc(OCCBr)cc3)c3ccccc23)cc1 tested on UACC-62 melanoma.
// result > 100 µM

// query Please report the measured TGI for CC(C)CC(N=Cc1nc(-c2ccccc2)oc1O)C(=O)O (stereo unspecified) tested on UACC-62 melanoma.
// result > 100 µM

// query Please report the measured TGI for Cc1cc(C23OC4COC(C)(C)OC4C2OC(C)(C)O3)nc2ccccc12 (stereo unspecified) tested on UACC-62 melanoma.
// result > 100 µM

----------
- Tested on: NCI-H226 lung
- method: NCI tumour cell line growth inhibition, 48 h
observable: TGI

compound: Cc1nc2ccccn2c1NC(=O)NNC(=S)Nc1ccc(Cl)cc1
TGI: > 100 µM
//
compound: O=C1C=C(Nc2ccc([N+](=O)[O-])cc2)c2ccccc2C1=O
TGI: 28.1 µM
//
compound: COc1ccc(/C=C/C(=O)c2ccc(NC(=O)CSc3nnc(-c4ccc(OC)c(OC)c4)n3-c3ccccc3)cc2)cc1
TGI: 24.3 µM
//
compound: Cc1ccc2ccc(O)cc2c1
TGI: > 100 µM
//
compound: COc1ccc(OC)c2c(C(=O)O)c(C(C)c3ccccc3)ccc12 (stereo unspecified)
TGI: > 100 µM
//
compound: COC1(C)OC[C@@]2(C)OC(C)C1(C)C2O[Si](C(C)C)(C(C)C)C(C)C (stereo partly specified)
TGI: 45.8 µM
//
compound: CC#CC#Cc1cccc(=O)o1
TGI: 96.1 µM
//
compound: O=C1C=C(Nc2ccccc2C(=O)c2ccccc2)c2ccccc2C1=O
TGI: > 100 µM
//
compound: Cc1cc2c(cc1C)[n+]([O-])c(NCCCN(C)C)c(C#N)[n+]2[O-]
TGI: > 100 µM
//
compound: CC(=O)c1ccc(NC(=O)/C(CC(=O)/C=C/c2ccccc2)=N/NC(N)=S)cc1
TGI: > 100 µM

// query Determine its reported TGI: CSC(N)=Nc1cccc2ccccc12
// result > 10 µM

// query Determine its reported TGI: N#CC(C#N)=c1ccc(=C2N3CCCC3CN2C23CC4CC(CC(C4)C2)C3)cc1 (stereo unspecified)
// result > 100 µM

// query Determine its reported TGI: CCCCSC(=CC(=O)c1cccc(C(=O)C=C(SCCCC)SCCCC)n1)SCCCC
// result > 100 µM

// query Determine its reported TGI: O=C(CSc1nnc(Cc2ccccc2)o1)Nc1ccc(Cl)cc1Cl
// result > 100 µM

// query Determine its reported TGI: COC12COC(=O)C1C(c1ccc3c(c1)OCO3)c1cc3c(cc1O2)OCO3 (stereo unspecified)
// result > 100 µM

// query Determine its reported TGI: Cn1cc(C2=C(c3cn(C)c4ccc(OCc5ccccc5)cc34)C(=O)NC2=O)c2ccccc21
// result > 25 µM

----------
Item-by-item account of TGI
- Tested on: MOLT-4 leukemia
- method: NCI tumour cell line growth inhibition, 48 h
Where a SMILES comes first, the peptide text is derived from it. [ ]: non-standard residue; d: D form. The star is where a group is joined. Bn2Val = CC(C)[C@@H](C(=O)*)N(Cc1ccccc1)Cc1ccccc1; NH(4-F-benzyl) = Fc1ccc(CN*)cc1; NMeV = CN[C@H](C(=O)O)C(C)C; dNMeA = CN[C@H](C)C(=O)O

Observe how each entry below is paired with its result.
compound: COc1ccc(/C(COc2ccc3c(c2)oc(=O)c2cc(OC)ccc23)=N/O)cc1
testedSystem: MOLT-4 leukemia
TGI: > 100 µM
//
compound: CC(C)OC(=O)Nc1ccc(-c2nc(-c3cccc(OCCN4CCOCC4)c3)c(-c3ccnc(Br)c3)[nH]2)cc1
testedSystem: MOLT-4 leukemia
TGI: > 100 µM
//
compound: COc1ccc(/C=C2/SC(c3ccccc3)N(NC(=O)CCCCCCCCC(=O)NN3C(=O)/C(=C\c4ccc(OC)c(OC)c4)SC3c3ccccc3)C2=O)cc1OC (configuration not stated)
testedSystem: MOLT-4 leukemia
TGI: 60.5 µM

// query Determine its reported TGI: Cc1nc2ccccn2c1NC(=O)NNC(=S)Nc1ccc(Cl)cc1
// result > 100 µM

// query Determine its reported TGI: CC(C)[C@H](NC(=O)[C@H](C(C)C)N(Cc1ccccc1)Cc1ccccc1)C(=O)N(C)[C@H](C(=O)N1CCC[C@H]1C(=O)N(C)[C@H](C)C(=O)NCc1ccc(F)cc1)C(C)C (Bn2Val-V[NMeV]P[dNMeA]-{NH(4-F-benzyl)})
// result > 20.8 µM

// query Determine its reported TGI: CC(C)CC(N=Cc1nc(-c2ccccc2)oc1O)C(=O)O (configuration not stated)
// result > 100 µM

----------
- Test system: BT-549 breast
- method: NCI tumour cell line growth inhibition, 48 h
Item-by-item account of TGI
# number only, unit µM dropped from output

compound: Cc1cn(C2CC(Br)C(COC(c3ccccc3)(c3ccccc3)c3ccccc3)O2)c(=O)[nH]c1=O (stereo not given)
valueObserved: 24.4
//
compound: COC(=O)c1c(O)c2c(c3c1OC(C)(C)CC3)OC(C)(C)CC2
valueObserved: 37.2
//
compound: CC(=O)c1c(SCCN2CCCCCC2)n(-c2ccccc2)c(=S)n(-c2ccccc2)c1=O
valueObserved: 32.7

// query Determine its reported TGI: COc1ccc(-n2sc3ncc(C)cc3c2=O)cc1
// result 35.6

// query Determine its reported TGI: O=C(Nc1ccc(OCc2nnc(-c3ccc(Cl)cc3)o2)c(F)c1)Nc1ccc(Cl)c(Cl)c1
// result 29.7

// query Determine its reported TGI: COC(=O)C1SC(N(C)c2ccccc2)=NC12c1ccccc1Nc1ccccc12 (stereo not given)
// result 45.1

// query Determine its reported TGI: O=C1Nc2ccc(Br)cc2C1=Nc1ccc2c(c1)OCO2
// result 50.5
